For each of the molecules below, state its phenotypic distance.
System: E13 (patient-derived glioblastoma stem cells of classical subtype);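 also: cell Painting imaging in 384-well plates, CellProfiler features reduced to at least 20 principal components, Euclidean distance versus same-plate DMSO vehicle wells (0.1% v/v), median over six images per well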
assay.protocol: phenotypic distance (Euclidean, principal components) from DMSO controls (arbitrary units); higher = stronger morphological change
conditions.used: 37 nM; exposure time: 72 h
The answer should be written as a number, with no unit following it.

# get_value(readout='phenotypic distance', item= "COC(=O)Nc1nc2cc(Sc3ccccc3)ccc2[nH]1" ) 0.771

Requested field: phenotypic distance. Item: "COc1nc(C)nc(Cl)c1NC1=NCCN1" 0.647

Need phenotypic distance, item "COc1cc2c(NC3CCN(C(C)C)CC3)nc(C3CCCCC3)nc2cc1OCCCN1CCCC1" 0.48

* * *

System: E21 (patient-derived glioblastoma stem cells of mesenchymal subtype)
assay.protocol: surviving fraction (nuclei count normalised to DMSO); higher = more cells surviving (less toxic)
conditions.used: 3000 nM; exposure time: 72 h
Structures can show the parent of a compound that is named as a salt.
Class T: surviving fraction at least 0.3. Class F: surviving fraction below 0.3.

// inclusive: surviving fraction at least 0.3? input: "COC(=O)Nc1nc2cc(C(=O)c3ccc(F)cc3)ccc2[nH]1" F

Please tell me: is the molecule "CC[C@@]1(O)C(=O)OCc2c1cc1n(c2=O)Cc2cc3c(CN(C)C)c(O)ccc3nc2-1" at or over 0.3 in terms of surviving fraction? F

Decide: surviving fraction of COC(=O)C1=C(C)NC(C)=C(C(=O)OCC(C)C)C1c1ccccc1[N+](=O)[O-] (stereo unspecified) >= 0.3? T

Is reported surviving fraction greater than or equal to 0.3 here: CN(C)C(=O)Oc1ccc[n+](C)c1 [Pyridostigmine iodide] T

Is the recorded value of surviving fraction equal to or greater than 0.3 for this molecule? "COc1cccc2c1C(=O)c1c(O)c3c(c(O)c1C2=O)C[C@@](O)(C(=O)CO)C[C@@H]3O[C@H]1C[C@H](N)[C@H](O[C@@H]2CCCCO2)[C@H](C)O1" F

For this molecule, is measured surviving fraction 0.3 or higher? COc1cccc2c1C(=O)c1c(O)c3c(c(O)c1C2=O)C[C@@](O)(C(C)=O)C[C@@H]3O[C@H]1C[C@H](N)[C@H](O)[C@H](C)O1 [Daunorubicin hydrochloride] F

Check if surviving fraction >= 0.3 (inclusive). Item: "OC[C@H]1O[C@@H](Oc2ccc(O)cc2)[C@H](O)[C@@H](O)[C@@H]1O" T

Identify whether the reported surviving fraction of the following molecule is 0.3 or greater: "CCCCCCNC(=O)n1cc(F)c(=O)[nH]c1=O" T

In plain terms: is recorded surviving fraction at least 0.3 for COc1ccc(/C=C\c2cc(OC)c(OC)c(OC)c2)cc1OP(=O)(O)O [Fosbretabulin Disodium] ? F

Given "O=C(CCBr)N1CCN(C(=O)CCBr)CC1" , state whether its surviving fraction is at least 0.3. T

* * *

Tested on: E21;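 also: nuclei counted by high-content imaging of Hoechst-stained cells in laminin-coated 384-well plates, relative to 0.1% DMSO vehicle wells, with staurosporine as cell-death control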
assay.protocol: surviving fraction (nuclei count normalised to DMSO); higher = more cells surviving (less toxic)
conditions.used: 12.3 nM; exposure time: 72 h
Counter-ions that a name gives are not always drawn.
metric: surviving fraction
// return just the number, without any unit appended

For the record "C#C[C@]1(O)CC[C@H]2[C@@H]3CCC4=CCCC[C@@H]4[C@H]3CC[C@@]21C" , what value of surviving fraction is listed for E21? 0.998

What is its surviving fraction for E21? Entry: O=C(/C=C\n1cnc(-c2cc(C(F)(F)F)cc(C(F)(F)F)c2)n1)NNc1cnccn1 [Selinexor] 0.729

# query: surviving fraction | item CCCCC1C(=O)N(c2ccccc2)N(c2ccc(O)cc2)C1=O (stereo not drawn) | system: E21 1.09

Find surviving fraction (E21) for the entry "Cc1c2ccncc2c(C)c2c1[nH]c1ccccc12" 1.07

Record CC[C@@]1(O)C(=O)OCc2c1cc1n(c2=O)Cc2cc3cc(O)ccc3nc2-1 [Hydroxy Camptothecine] : what is its surviving fraction with E21? 0.115

Hi! What's the reported surviving fraction for "Nc1ccc(-c2ccc3ncc4ccc(=O)n(-c5cccc(C(F)(F)F)c5)c4c3c2)cn1" on E21? 0.836

Notebook entry, E21 assay: surviving fraction of "O=C(Oc1cccc2cccnc12)c1ccccc1" = ? 1.11

Entry COc1ccc2[nH]c([S+]([O-])Cc3ncc(C)c(OC)c3C)nc2c1 (stereo not drawn) , system E21: what surviving fraction was measured? 0.928

Find the measured surviving fraction: item COc1c(N2CCNC(C)C2)c(F)cc2c(=O)c(C(=O)O)cn(C3CC3)c12 (stereo not drawn) , target or system E21. 0.874

For the record "CC(C)C[C@H](NC(=O)[C@H](Cc1ccccc1)C[C@@H](O)[C@H](Cc1ccccc1)NC(=O)OC(C)(C)C)C(=O)N[C@@H](Cc1ccccc1)C(N)=O" , what value of surviving fraction is listed for E21? 0.969

# query: surviving fraction | item "C[C@H](NC(=O)[C@@H](O)c1cc(F)cc(F)c1)C(=O)N[C@@H]1C(=O)N(C)c2ccccc2-c2ccccc21" | system: E21 0.994

Value wanted: surviving fraction (E21) of entry "Nc1nc(Cl)nc2c1ncn2[C@@H]1O[C@H](CO)[C@@H](O)[C@@H]1F" 0.885

Give recorded surviving fraction with E21 for the following compound: CCC(=O)OCC(=O)[C@@]1(OC(=O)CC)[C@H](C)C[C@H]2[C@H]3[C@H]([C@@H](O)C[C@@]21C)[C@@]1(C)C=CC(=O)C=C1C[C@H]3Cl [Alclometasone dipropionate] 1.26

Param readout = surviving fraction; param system = E21; param query = "Cc1cc(Nc2cc(CN3CCOCC3)c3nc(C)c(Cc4ccc(Cl)cc4F)n3n2)n[nH]1" ; response: value 1.02

Provide value of surviving fraction for this record tested with E21: NCc1ccccc1CC(=O)N[C@@H]1C(=O)N2C(C(=O)O)=C(CSc3nnnn3CC(=O)O)CS[C@H]12 [Ceforanide] 1

Lab note: need surviving fraction for COc1cccc2c1C(=O)c1c(O)c3c(c(O)c1C2=O)C[C@@](O)(C(=O)CO)C[C@@H]3O[C@H]1C[C@H](N)[C@H](O)[C@H](C)O1 [Doxorubicin hydrochloride] on E21, anyone have it? 0.544

# get_value(readout= surviving fraction, system= E21) for Nc1ccn([C@@H]2O[C@H](CO)[C@@H](O)C2(F)F)c(=O)n1 [Gemcitabine HCl] 0.173

Observed surviving fraction on E21 for CC1(C)S[C@@H]2[C@H](NC(=O)Cc3ccccc3)C(=O)N2[C@H]1C(=O)O [Benzylpenicillin sodium] , please. 1.11

Entry Clc1ccc(COC(Cn2ccnc2)c2ccc(Cl)cc2Cl)c(Cl)c1 (stereo not drawn) , system E21: what surviving fraction was measured? 1.05

What value of surviving fraction on E21 does "CN(C(=O)CN(CCO)CC(=O)N(C)C(C)(C)Cc1ccccc1)C(C)(C)Cc1ccccc1" have? 1

Write down the reported surviving fraction of OC(c1cc(C(F)(F)F)nc2c(C(F)(F)F)cccc12)C1CCCCN1 (stereo not drawn) [Mefloquine hydrochloride] , test system: E21. 0.951

Missing value: surviving fraction, E21, entry Cc1cc(/C=C/c2ccc3cc(N(C)C)ccc3[n+]2C)c(C)n1-c1ccccc1 [Pyrvinium pamoate] . Fill in? 0.815

Please state recorded surviving fraction (tested on E21) of "C=CC(=O)Nc1cccc(Oc2nc(Nc3ccc(N4CCN(C)CC4)cc3)nc3ccsc23)c1" 0.932

For E21, provide surviving fraction of "Cc1ccc(/C=N/NC(=O)c2n[nH]c3c2CCCC3)cc1" please. 0.931

Short answer please: surviving fraction, E21, entry CCCCCCC[N+](CC)(CC)CCCCc1ccc(Cl)cc1 [Clofilium tosylate] 1.11

Lab note: need surviving fraction with E21 for entry "CN(c1nccc(=O)[nH]1)C1CCN(c2nc3ccccc3n2Cc2ccc(F)cc2)CC1" , please look it up. 1

Which surviving fraction is reported with E21 for this entry: COc1cc(N)c(Cl)cc1C(=O)NC1CCN(CCCOc2ccc(F)cc2)CC1OC (stereo not drawn) [Cisapride] ? 1.03

For the record Clc1ccc(COC(Cn2ccnc2)c2ccc(Cl)cc2Cl)cc1 (stereo not drawn) [Econazole nitrate] , what value of surviving fraction is listed for E21? 0.967
